Assay: A CellTox Green Cytotoxicity Assay to monitor cytotoxicity in HepG2 cells - 16 hour (AID 1224876); also: nearly all actives have a fitted effect of over 45% in size
Conditions: CellTox Green fluorescence; series mostly up to 76.8 µM
Results filed as inconclusive are left out. Active and inactive are the calls of the source. Calls follow the shape of the dose curve; as a rule, active = well fitted activation curve with a large enough effect in the repeat runs; inconclusive = weak or mixed curves; inactive = flat fitted curve, though single readings scatter.
assay_metric: outcome

compound: C=CC(=O)OCCCCCCCC
outcome: inactive

compound: CC(C)(c1ccccc1)c1ccc(Nc2ccc(C(C)(C)c3ccccc3)cc2)cc1
outcome: inactive

compound: Cc1cc(C2(c3cc(C)c(O)cc3C)OS(=O)(=O)c3ccccc32)c(C)cc1O
outcome: inactive

compound: [Cl][In]([Cl])[Cl]
outcome: inactive

compound: CCCCCC(=O)O[C@]1(C(C)=O)CC[C@H]2[C@@H]3CCC4=CC(=O)CC[C@]4(C)[C@H]3CC[C@@]21C
outcome: inactive

Req: Item `CN(C)c1ccc2nc3ccc(=[N+](C)C)cc-3sc2c1` has what recorded outcome?
Resp: inactive

Req: Item `CC1=C(C=O)C(C)(C)CC=C1` has what recorded outcome?
Resp: inactive
